# tested_system: Geranylgeranyl transferase type I (Homo sapiens, UniProt P49354+P53609)
# measurement_protocol: Inhibition of the human Geranylgeranyl transferase type I catalyzed incorporation of [3H]GGPP into a biotinylated peptide corresponding to the C-terminus of human K-Ras.
assay_metric: pIC50
Interpret pIC50 as the negative base-10 log of the concentration measured in mol/L.

Problem: I'd like to know its pIC50. The compound in question is O=C1CN(Cc2cncn2Cc2ccc(-c3cccc(Cl)c3)cc2)CCN1c1cccc(Cl)c1
Solution: 5.07

Problem: I'd like to know its pIC50. The compound in question is O=C1CN2CCc3cncn3Cc3ccc(Br)c(c3)Oc3ccc4cccc(c4c3)N1CC2
Solution: 6.79

Problem: I'd like to know its pIC50. The compound in question is COc1cc(Cn2cncc2CCN2CCN(c3cccc(Cl)c3)C(=O)C2)ccc1-c1ccc(C(F)(F)F)cc1
Solution: 6.82

Problem: I'd like to know its pIC50. The compound in question is O=C1CN2CCc3cncn3Cc3ccc(C#CCCC(F)(F)F)c(c3)Oc3ccc4cccc(c4c3)N1CC2
Solution: 8.32

Problem: I'd like to know its pIC50. The compound in question is CCCCc1ccc2cc1Oc1ccc3cccc(c3c1)N1CCN(CCc3cncn3C2)CC1=O
Solution: 5.61

Problem: I'd like to know its pIC50. The compound in question is O=C1CN2CCc3cncn3Cc3ccc(CCCCC(F)(F)F)c(c3)Oc3ccc4cccc(c4c3)N1CC2
Solution: 7.22

Problem: I'd like to know its pIC50. The compound in question is COc1cc(C(F)(F)F)ccc1-c1ccc(Cn2cncc2CN2CCN(c3cccc(Cl)c3)C(=O)C2)cc1
Solution: 5.73

Problem: I'd like to know its pIC50. The compound in question is O=C1CN(Cc2cncn2Cc2ccc(-c3ccc(OC(F)(F)F)cc3)nc2)CCN1c1cccc(Cl)c1
Solution: 6.25

Problem: I'd like to know its pIC50. The compound in question is O=C1CN(Cc2cncn2Cc2ccc(-c3cc(Cl)cc(Cl)c3)cc2)CCN1c1cccc(Cl)c1
Solution: 5.52

* * *

# tested_system: Protein farnesyltransferase
# measurement_protocol: Displacement of radiolabeled FTI from Farnesyltransferase in v-Ha-ras-transformed Rat1 cells.
pIC50: −log10 of the molar value.
Binary classification by pIC50, with 6 as an inclusive lower bound for Yes; all other cases are No.

Problem: Determine whether this molecule has pIC50 no lower than 6: O=C1CN(Cc2cncn2Cc2ccc(-c3cc(Cl)cc(Cl)c3)cc2)CCN1c1cccc(Cl)c1
Solution: Yes

Problem: Determine whether this molecule has pIC50 no lower than 6: O=C1CN2CCc3cncn3Cc3ccc(C#CCCC(F)(F)F)c(c3)Oc3ccc4cccc(c4c3)N1CC2
Solution: Yes

Problem: Determine whether this molecule has pIC50 no lower than 6: O=C1CN2CCc3cncn3Cc3ccc(Br)c(c3)Oc3ccc4cccc(c4c3)N1CC2
Solution: Yes

Problem: Determine whether this molecule has pIC50 no lower than 6: O=C1CN(Cc2cncn2Cc2ccc(-c3ccccc3)cc2)CCN1c1cccc(Cl)c1
Solution: No

Problem: Determine whether this molecule has pIC50 no lower than 6: N#Cc1ccc2cc1Oc1ccc3cccc(c3c1)N1CCN(CCc3cncn3C2)CC1=O
Solution: Yes

Problem: Determine whether this molecule has pIC50 no lower than 6: O=C1CN(Cc2cncn2Cc2ccc(-c3ccc(C(F)(F)F)cc3)cc2)CCN1c1cccc(Cl)c1
Solution: Yes
